Just for reference, paper PMC11259170 is where these values come from.

target: hGPR65 (Homo sapiens)
Construct: expressed in transfected cells; host or cells: HeLa (ATCC CCL-2), lentiviral transduction, pLX317
assayName: cAMP detection in HeLa expression cell line, hGPR65
Assay type: cell-based
assayConditions: 2nd hGPR column pair; NA = no activity; read-out: hGPR EC50
Binarize EC50 at 2000 nM; below is T, at or above is F.

Recorded results for 5 compounds are shown here.
- Cc1cnc(NC(=O)c2cnn3c(O)cc(-c4ccc(COC(C)C)cc4)nc23)nc1: T
- Cc1ccc(NC(=O)c2cnn3c(O)cc(-c4ccc(COC(C)C)cc4)nc23)c(Cl)c1: F
- Cc1ccc(NC(=O)c2cnn3c(O)cc(-c4ccc(C(F)(F)F)cc4)nc23)cc1: T
- Cc1ccc(NC(=O)c2cnn3c(O)cc(-c4ccc(Cl)cc4)nc23)cc1: T
- COc1cc(-c2cc(O)n3ncc(C(=O)Nc4ccc(C)cc4)c3n2)ccc1Cl: T

Does COc1ccc(-c2cc(O)n3ncc(C(=O)Nc4ccc(C)cc4)c3n2)cc1 have EC50 strictly under 2000 nM?
T

Does CC(C)OCc1ccc(-c2cc(O)n3ncc(C(=O)Nc4ccccc4)c3n2)cc1 have EC50 strictly under 2000 nM?
F

Does Cc1ccc(NC(=O)c2cnn3c(O)cc(-c4ccc(F)cc4)nc23)cc1 have EC50 strictly under 2000 nM?
T

Does CC(C)OCc1ccc(-c2cc(O)n3ncc(C(=O)Nc4ccccn4)c3n2)cc1 have EC50 strictly under 2000 nM?
F

====

Exercise: for every item that follows, state its recorded EC50.
target: hGPR65 (Homo sapiens)
Construct: expressed in transfected cells; host or cells: HeLa (ATCC CCL-2), lentiviral transduction, pLX317
assayName: cAMP detection in HeLa expression cell line, hGPR65
Type: cell-based
assayConditions: 1st hGPR column pair; NA = no activity; read-out: hGPR EC50
Answers are plain numbers, in µM.

For orientation, consider the following solved cases.
• Cc1ccc(NC(=O)c2cnn3c(O)cc(-c4ccc(N5CCOCC5)cc4)nc23)cc1 [BRD4390] = 0.703
• Cc1ccc(NC(=O)c2cnn3c(O)cc(-c4ccc(-c5ccccc5C(C)C)cc4)nc23)cc1 [BRD4665] = 0.227
• Cc1ccc(NC(=O)c2cnn3c(O)cc(-c4ccc(N5CCN(C)CC5)nc4)nc23)cc1 [BRD5070] = 1.31
• COc1ccc(-c2ccn3ncc(C(=O)Nc4ccc(C)cc4)c3n2)cc1 [BRD6737] = 0.0844
• Cc1ccc(NC(=O)c2cnn3c(O)cc(-c4ccc(N5CCN(C)CC5)c(Cl)c4)nc23)cc1 [BRD5068] = 1.76
• Cc1ccc(NC(=O)c2cnn3c(O)cc(-c4ccc(-c5ccccc5O)cc4)nc23)cc1 [BRD1689] = 3.57
• Cc1ccc(NC(=O)c2cnn3c(O)cc(COc4ccccc4)nc23)cc1 [BRD6694] = 8.03
• CCN(CC)C(=O)c1cnn2c(O)cc(-c3ccc(COC)cc3)nc12 [BRD7582] = 2.64

Proceeding to the next compound to report its EC50.
Data point: Cc1ccc(NC(=O)c2cnn3c(O)cc(-c4ccc(C(=O)NC(C)C)cc4)nc23)cc1 [BRD5085] ; EC50 = 2.75

====

target: mGPR65 (Mus musculus, UniProt Q61038)
Construct: expressed in transfected cells; host or cells: HeLa (ATCC CCL-2), lentiviral transduction, pLX317
Sequence (Q61038 whole entry): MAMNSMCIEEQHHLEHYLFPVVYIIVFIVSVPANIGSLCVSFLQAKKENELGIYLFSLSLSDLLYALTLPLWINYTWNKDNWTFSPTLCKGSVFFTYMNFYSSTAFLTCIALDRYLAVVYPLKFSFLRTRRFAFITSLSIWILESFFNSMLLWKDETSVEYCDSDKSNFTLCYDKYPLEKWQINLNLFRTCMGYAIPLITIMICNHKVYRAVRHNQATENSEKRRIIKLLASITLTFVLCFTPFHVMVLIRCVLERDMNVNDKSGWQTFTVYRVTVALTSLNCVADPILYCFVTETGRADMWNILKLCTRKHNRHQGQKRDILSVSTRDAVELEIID
assayName: cAMP detection in HeLa expression cell line, mGPR65
Assay type: cell-based
assayConditions: 2nd mGPR column pair; NA = no activity; read-out: mGPR EC50
pEC50: −log10 of the molar value.
Given measured pEC50, output 1 if it is greater than or equal to 6 and -1 if not.

Recorded results for 5 compounds are shown here.
- CCOCc1ccc(-c2cc(O)n3ncc(C(=O)Nc4ccccc4)c3n2)cc1 [BRD5063]: -1
- COc1cccc(-c2cc(O)n3ncc(C(=O)Nc4ccc(C)cc4)c3n2)c1 [BRD6202]: 1
- Cc1ccc(NC(=O)c2cnn3c(O)cc(-c4ccc(-c5ccccc5O)cc4)nc23)cc1 [BRD1689]: -1
- Cc1ccc(NC(=O)c2cnn3c(O)cc(-c4ccc(-c5ccccc5C(C)C)cc4)nc23)cc1 [BRD4665]: 1
- CC(C)OCc1ccc(-c2cc(O)n3ncc(C(=O)Nc4ccccc4)c3n2)cc1 [BRD5060]: -1

Textbook exercise: given the entry Cc1ccc(NC(=O)c2cnn3c(O)cc(C(C)Cn4nccc4C)nc23)cc1 (stereo not drawn) [BRD4822] , state whether its pEC50 is greater than or equal to 6.
-1

Textbook exercise: given the entry CNC(=O)c1ccc(-c2cc(O)n3ncc(C(=O)Nc4ccc(C)cc4)c3n2)cc1 [BRD5083] , state whether its pEC50 is greater than or equal to 6.
-1

Textbook exercise: given the entry CCCc1cc(-c2cc(O)n3ncc(C(=O)Nc4ccc(C)cc4)c3n2)no1 [BRD8472] , state whether its pEC50 is greater than or equal to 6.
1

Textbook exercise: given the entry Cc1ccc(NC(=O)c2cnn3c(O)cc(-c4ccc(C(=O)NC(C)C)cc4)nc23)cc1 [BRD5085] , state whether its pEC50 is greater than or equal to 6.
-1

Textbook exercise: given the entry COCc1ccc(-c2cc(O)n3ncc(C(=O)Nc4ccc(F)cc4)c3n2)cc1 [BRD3674] , state whether its pEC50 is greater than or equal to 6.
-1

Textbook exercise: given the entry CC(C)OCc1ccc(-c2cc(O)n3ncc(C(=O)Nc4cccnc4)c3n2)cc1 [BRD5077] , state whether its pEC50 is greater than or equal to 6.
-1

Textbook exercise: given the entry Cc1ccc(NC(=O)c2cnn3c(O)cc(COc4ccccc4)nc23)cc1 [BRD6694] , state whether its pEC50 is greater than or equal to 6.
-1

Textbook exercise: given the entry Cc1ccc(NC(=O)c2cnn3c(O)cc(-c4ccc(N5CCOCC5)c(Cl)c4)nc23)cc1 [BRD5062] , state whether its pEC50 is greater than or equal to 6.
1

Textbook exercise: given the entry CCCc1cc(-c2cc(O)n3ncc(C(=O)Nc4ccccc4)c3n2)no1 [BRD0124] , state whether its pEC50 is greater than or equal to 6.
1

====

target: hGPR65 (Homo sapiens, UniProt Q8IYL9)
Construct: expressed in transfected cells; host or cells: HeLa (ATCC CCL-2), lentiviral transduction, pLX317
Sequence (Q8IYL9 whole entry): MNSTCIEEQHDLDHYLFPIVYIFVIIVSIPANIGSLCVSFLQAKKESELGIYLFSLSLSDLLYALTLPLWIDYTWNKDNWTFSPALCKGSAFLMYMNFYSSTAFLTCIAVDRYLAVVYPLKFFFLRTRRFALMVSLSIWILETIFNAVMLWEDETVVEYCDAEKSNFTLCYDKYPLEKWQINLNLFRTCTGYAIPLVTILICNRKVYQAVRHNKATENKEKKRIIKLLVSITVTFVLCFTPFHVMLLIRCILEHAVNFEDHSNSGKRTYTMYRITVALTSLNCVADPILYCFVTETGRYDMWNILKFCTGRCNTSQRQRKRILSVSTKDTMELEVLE
assayName: cAMP detection in HeLa expression cell line, hGPR65
Assay type: cell-based
assayConditions: HeLa, 2nd hGPR column pair; relative to 100uM forskolin (100%) and DMSO (0%); NA = no activity; read-out: hGPR Max Activity %
observedProperty: Emax (%)
Answers are plain numbers, in %.

For orientation, consider the following solved cases.
- CC(C)OCc1ccc(-c2cc(O)n3ncc(C(=O)Nc4ccccn4)c3n2)cc1: 75.9
- CCCc1cc(-c2cc(O)n3ncc(C(=O)Nc4ccccc4)c3n2)no1: 71.8
- Cc1cnc(NC(=O)c2cnn3c(O)cc(-c4ccc(COC(C)C)cc4)nc23)cn1: 65.1
- CCCc1cc(-c2cc(O)n3ncc(C(=O)Nc4ccc(C)cc4)c3n2)no1: 51.3
- Cc1ccc(NC(=O)c2cnn3c(O)cc(-c4cnc(N5CCOCC5)c(Cl)c4)nc23)cc1: 39.5
- Cc1ccc(NC(=O)c2cnn3c(O)cc(-c4ccc(COC(C)C)cc4)nc23)c(F)c1: 70.4
- Cc1ccc(NC(=O)c2cnn3c(O)cc(-c4ccc(C(=O)N(C)C)cc4)nc23)cc1: 40.2
- COCc1ccc(-c2cc(O)n3ncc(C(=O)Nc4ccc(C)cc4)c3n2)cc1: 79.2

Give Emax for each of the items listed below.
1. Cc1ccc(NC(=O)c2cnn3c(O)cc(-c4ccc(COC(C)C)c(Cl)c4)nc23)cc1
2. Cc1ccc(NC(=O)c2cnn3c(O)cc(-c4ccc(-c5ccccc5)cc4)nc23)cc1

75.4
72.4

Give Emax for each of the items listed below.
1. Cc1ccc(NC(=O)c2cnn3c(O)cc(-c4ccc(COC(C)C)cc4)nc23)cc1F
2. Cc1ccc(NC(=O)c2cnn3c(O)cc(-c4ccc(-c5ccccc5O)cc4)nc23)cc1
3. CN1N=C(SCc2ccc(Cl)cc2Cl)Sc2c1cnn(C)c2=O [BTB09089, reference compound]
4. Cc1ccc(NC(=O)c2cnn3c(O)cc(-c4ccc(F)c(Cl)c4)nc23)cc1
5. COc1ccc(-c2cc(O)n3ncc(C(=O)Nc4ccc(C)cc4)c3n2)cc1

1: 73.3; 2: 74.3; 3: 31.1; 4: 69.2; 5: 66

Give Emax for each of the items listed below.
1. Cc1ccc(NC(=O)c2cnn3c(O)cc(-c4ccc(Cl)cc4)nc23)cc1
2. Cc1ccc(NC(=O)c2cnn3c(O)cc(-c4ccc(N5CCN(C)CC5)cc4)nc23)cc1
3. Cc1ccc(NC(=O)c2cnn3c(O)cc(-c4ccc(N5CCOCC5)cc4)nc23)cc1

1: 81.4; 2: 57.7; 3: 76.8
